- EXPERIMENTAL_SYSTEM: Peroxisome proliferator-activated receptor gamma (Homo sapiens)
- PROCEDURE_TEXT: Transactivation of human PPARgamma LBD transfected in mouse embryo fibroblasts at 100 uM after 18 hrs by Gal4-responsive luciferase reporter gene assay relative to rosiglitazone
Think of 20% as a floor: if Activity stands on it or above, it is 1; beneath it, 0.

Problem: Evaluate "CC(C)N(Cc1cccc(C(=O)N(Cc2ccc(CCC(=O)O)cc2)C(C)C)c1)C(=O)c1ccccc1" : Activity at minimum 20%?
Result: 0

Problem: Evaluate "CC(C)N(Cc1ccc(CCC(=O)O)cc1)C(=O)c1ccc(CNC(=O)c2ccccc2)cc1" : Activity at minimum 20%?
Result: 1

Problem: Evaluate "CC(C)N(Cc1ccc(CCC(=O)O)cc1)C(=O)c1cccc(CNC(=O)c2ccccc2)c1" : Activity at minimum 20%?
Result: 1

Problem: Evaluate "CC(C)N(Cc1ccc(C(=O)NCc2ccc(CCC(=O)O)cc2)cc1)C(=O)c1ccccc1" : Activity at minimum 20%?
Result: 0

Problem: Evaluate "CCN(Cc1cccc(C(=O)N(CC)Cc2ccc(CCC(=O)O)cc2)c1)C(=O)c1ccccc1" : Activity at minimum 20%?
Result: 1

Problem: Evaluate "CC(C)N(Cc1ccc(C(=O)N(Cc2ccc(CCC(=O)O)cc2)C(C)C)cc1)C(=O)c1ccccc1" : Activity at minimum 20%?
Result: 1

Problem: Evaluate "CCN(Cc1ccc(CCC(=O)O)cc1)C(=O)c1ccc(CN(C(=O)c2ccccc2)C(C)C)cc1" : Activity at minimum 20%?
Result: 0

Problem: Evaluate "CCN(Cc1ccc(C(=O)NCc2ccc(CCC(=O)O)cc2)cc1)C(=O)c1ccccc1" : Activity at minimum 20%?
Result: 0

Problem: Evaluate "CCN(Cc1ccc(C(=O)N(CC)Cc2ccc(CCC(=O)O)cc2)cc1)C(=O)c1ccccc1" : Activity at minimum 20%?
Result: 0
